Measured cell viability by item
System: Vero E6
assay_protocol: cell viability relative to DMSO; higher = less toxic
condition_details: 72 h; 10000 nM

molecule	test_system	cell viability, %
Cc1ccccc1OCC(O)CO (stereo unspecified)	Vero E6	98.4
C[C@@H]1CN(c2c(F)c(N)c3c(=O)c(C(=O)O)cn(C4CC4)c3c2F)C[C@H](C)N1	Vero E6	96
N#CN=C(NCCCCCCOc1ccc(Cl)cc1)Nc1ccncc1	Vero E6	1.2
Clc1ccccc1C(c1ccccc1)(c1ccccc1)n1ccnc1	Vero E6	89.9
Cc1ccc(-n2nc(C(C)(C)C)cc2NC(=O)NCc2cc(F)ccc2Oc2ccc3c(cnn3CCO)c2)cc1	Vero E6	64.7
O=c1c(-c2ccccc2)c1-c1ccccc1	Vero E6	93.5
CCOc1cc(C(=O)Nc2ccc(Cl)c(-c3nc4ccccc4[nH]3)c2)cc(OCC)c1OCC	Vero E6	92.6
Nc1ccc(S(=O)(=O)c2ccc(N)cc2)cc1	Vero E6	100
Cc1cccc(C)c1OCC(=O)N[C@@H](Cc1ccccc1)[C@@H](O)C[C@H](Cc1ccccc1)NC(=O)[C@H](C(C)C)N1CCCNC1=O	Vero E6	110
Cc1cc(N2CCOCC2)ccc1Nc1nc(NC2CCCCC2)c2nc[nH]c2n1	Vero E6	60.8
CCOC(=O)[C@@H](N)Cc1ccc(-c2cc(O[C@H](c3ccc(Cl)cc3-n3ccc(C)n3)C(F)(F)F)nc(N)n2)cc1	Vero E6	107
CC1(C)CC(Oc2ccc(-c3ccc(-c4cn[nH]c4)cc3O)nn2)CC(C)(C)N1	Vero E6	5.1
COc1ccc(COc2ccc(CC#N)cc2)cc1	Vero E6	87.4
CCOC(=O)C1=C(COCCN)NC(C)=C(C(=O)OC)C1c1ccccc1Cl (stereo unspecified)	Vero E6	96.1
O[C@@H](C[C@H]1c2ccccc2-c2cncn21)C1CCCCC1	Vero E6	84.2
O=C(Nc1ccccc1)c1cc([N+](=O)[O-])ccc1Cl	Vero E6	97.7
CCN(CC)CCOc1ccc(Cc2ccccc2)cc1	Vero E6	96
Cc1ccc(OCCSc2ncccn2)c(Br)c1	Vero E6	105
Nc1ncc(Cc2ccc(Br)cc2)s1	Vero E6	107
CN(C(=O)CN1C(=O)COc2cc(Cl)c(Cl)cc21)[C@@H](CN1CCCC1)c1ccc(-c2cccc(C(N)=O)c2)cc1	Vero E6	2.8
CC(=O)Nc1cccc(O)c1	Vero E6	102
Oc1ccc2ccccc2c1SSc1c(O)ccc2ccccc12	Vero E6	95.8
COc1cc2c(cc1OC)CN(C(=O)/C=C/c1c(-c3ccccc3)n(C)c3ncccc13)CC2	Vero E6	100
NC(=O)CN1CCCC1=O	Vero E6	92
CN(C)c1ccc(/C=C2\C(=O)Nc3ccccc32)cc1	Vero E6	89.3
O=C(O)c1ccccc1-c1ccc(C(F)(F)F)cc1	Vero E6	98.2
O=NN(CCCl)C(=O)NC1CCCCC1	Vero E6	94.6
C[C@H]1CCC/C=C/[C@@H]2C[C@H](O)C[C@H]2[C@H](O)/C=C/C(=O)O1	Vero E6	3.3
O=C(NCCN1CCC2(CC1)C(=O)NCN2c1cccc(F)c1)c1ccc(F)c(F)c1	Vero E6	89.8
CCc1cccc(CC)c1NC(=O)N1Cc2[nH]nc(NC(=O)c3ccc(N4CCN(C)CC4)cc3)c2C1	Vero E6	89.3
CC1=C(/C=C/C(=C/C=C/C(C)=C/C(=O)O)c2ccc(C)cc2)C(C)(C)CCC1	Vero E6	108
